# Protocol summary: Drug concentration in serum and tissues by LC-MS, pharmacokinetics and BBB permeability
# Assay type: in vivo, mice
# Recorded conditions: C57BL/6, mouse, intravenous; 15 mg/kg i.v.; Sham brain; 30 min; mean ± SD; read-out: concentration in Sham brain
Reported metric: concentration at 30 min (ng/g)
Answers are plain numbers, in ng/g.

Ask: Any idea what concentration at 30 min was measured for `O=C(CCN1CCN(Cc2ccccc2)CC1)Nc1nc(-c2ccccc2)cs1` ?
Reply: 2730

====

# Protocol summary: Drug concentration in serum and tissues by LC-MS, pharmacokinetics and BBB permeability
# Type: in vivo, mice
# Recorded conditions: C57BL/6, mouse, CL brain (contralateral non-ischemic hemisphere) / serum, iv; 15 mg/kg i.v.; CL brain; mean AUC0–6 h ratio; read-out: Kp (brain-serum ratio, AUCbrain/AUCserum)
Reported metric: Kp

Ask: Any idea what Kp was measured for O=C(CCN1CCN(Cc2ccccc2)CC1)Nc1nc(-c2ccccc2)cs1 [TJ-5] ?
Reply: 5.21

Values compiled from paper PMC9797592.
